B1: ZBED2 (parent)
chain: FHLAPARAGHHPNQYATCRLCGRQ

# Variants of: B1
# EXPERIMENT DESCRIPTION: protein stability index of a GFP-peptide fusion (GPS, HEK-293T) (PSI 1-6); higher = more stable;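 also: lentivirally expressed fusions sorted by FACS into six bins by GFP to DsRed ratio, PSI derived from sequencing read proportions per bin multiplied by bin number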
# SETUP CONDITIONS: c terminus: a fixed tail appended
Parameter threshold = 2. Response is 1.0 when protein stability index meets or exceeds it, else 0.0.

ALTERATION	LABEL CLASS
Q14C	1.0
Q24P	0.0
F1T	1.0
R7G	1.0
A6F	0.0
Y15P	0.0
C18P	1.0
N13D	0.0
A16F	1.0
L3T	1.0
Q24M	0.0
G9S	1.0
T17G	1.0
R19T	0.0
